Settings: 298.15 K; 101.33 kPa; Liquid
reported property: mass density (kg/m3)

molecule: CC1CCCO1 (centres undefined) [2-methyltetrahydrofuran]
mass density [kg/m3]: 848.1
--
molecule: C1CCOC1 [tetrahydrofuran]
mass density [kg/m3]: 882.09
--
molecule: COC(C)(C)C
mass density [kg/m3]: 735.99
--
molecule: CCCCCCCC
mass density [kg/m3]: 698.73
